# System: histone deacetylase (HDAC)
# assay_comment: Fluorometric HDAC activity assay on extracts of treated HT29 cells
# Format: cell-based, human
# conditions: HT29 colon cells treated 72 h at GI50 concentration; lower RFU = decline in HDAC activity; HT29 extract control 5154 ± 40
Would you please tag the item TRUE when its HDAC Inhibition at 72 h is 3000 RFU or above, and FALSE when it is below?

N[C@H]1CCCC[C@@H]1N.[Pt+2].c1cnc2c(c1)ccc1cccnc12 [PHENSS, [Pt^II(phen)(SS-DACH)]^2+] :: TRUE

In: Determine whether measured HDAC Inhibition at 72 h meets or exceeds 3000 RFU for N.N.[Cl][Pt][Cl] [Cisplatin, cis-diammineplatinum(II) dichloride]
Out: TRUE

In: Threshold query (HDAC Inhibition at 72 h >= 3000 RFU) on N[C@H]1CCCC[C@@H]1N.[OH][Pt+2][OH].c1cnc2c(c1)ccc1cccnc12
Out: TRUE

In: Reported HDAC Inhibition at 72 h reaches at least 3000 RFU for Cc1cc2cccnc2c2ncccc12.N[C@H]1CCCC[C@@H]1N.[OH][Pt+2][OH] ?
Out: TRUE

In: Please indicate if the recorded HDAC Inhibition at 72 h for CC(/C=C/C(=O)NO)=C\[C@@H](C)C(=O)c1ccc(N(C)C)cc1 meets or exceeds 3000 RFU.
Out: FALSE
